target: glucagon receptor (UniProt P47871 26-477, limits assumed); test: cell-based or functional assay
Sequence (P47871 26-477 limits assumed): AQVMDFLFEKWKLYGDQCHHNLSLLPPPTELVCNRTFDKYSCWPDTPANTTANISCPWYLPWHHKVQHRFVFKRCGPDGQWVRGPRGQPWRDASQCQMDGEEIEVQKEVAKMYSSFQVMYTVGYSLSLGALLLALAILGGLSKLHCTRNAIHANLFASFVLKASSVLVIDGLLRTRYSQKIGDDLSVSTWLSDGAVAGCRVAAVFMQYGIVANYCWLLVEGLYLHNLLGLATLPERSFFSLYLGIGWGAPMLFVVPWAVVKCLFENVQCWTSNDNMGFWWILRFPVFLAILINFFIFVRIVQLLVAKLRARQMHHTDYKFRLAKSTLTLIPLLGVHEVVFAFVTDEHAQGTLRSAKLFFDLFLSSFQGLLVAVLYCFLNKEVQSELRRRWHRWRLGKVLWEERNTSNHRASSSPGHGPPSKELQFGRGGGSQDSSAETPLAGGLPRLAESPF
Numbered stars: 1 amine (or outer) side, 2 acyl side, 3 side chain; on linkers, the order of the positions; unused ones are H or OH. Square brackets hold non-standard residues; d marks the D form. Side chains are listed from the residue outwards. * marks the point of attachment. γGlu = O=C(O)[C@H](CCC(=O)[*:2])N[*:1]; Palmitoyl = CCCCCCCCCCCCCCCC(=O)*
Consider the following binders and their measured EC50 at Glucagon Receptor (cAMP luciferase reporter, HEK293) readings.
I only need the number, in nM, no unit after it.

Worked examples, 2 binders total:
[[record]]
binder = "Ac-[dF]AQGTFTSDK([γGlu-Palmitoyl])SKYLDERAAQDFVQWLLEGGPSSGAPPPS-NH2 [peptide of SEQ ID NO: 150]"
result_number = 0.014

[[record]]
binder = "Ac-[dY]AQGTFTSDYSKYLDERAAQDFVQWLLEAGPSSGAPPPSK([γGlu-γGlu-Palmitoyl])G-NH2 [peptide of SEQ ID NO: 159]"
result_number = 0.04


Memo: Ac-[dY]AQGTFTSDYSKYLDERAAQDFVQWLLEGGPSSGAPPPSK([γGlu-γGlu-Palmitoyl])G-NH2 [peptide of SEQ ID NO: 149] , reported EC50 at Glucagon Receptor (cAMP luciferase reporter, HEK293): 0.012

Memo: Ac-[dY]ALGTFTSDK([γGlu-Palmitoyl])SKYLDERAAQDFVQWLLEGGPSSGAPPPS-NH2 [peptide of SEQ ID NO: 142] , reported EC50 at Glucagon Receptor (cAMP luciferase reporter, HEK293): 0.103
